Listed below: IC50 values for each entry.
# assayed_target: recombinant full length HPK-1 enzyme (Homo sapiens (Human))
# Sequence (Q92918 whole entry, species assumed): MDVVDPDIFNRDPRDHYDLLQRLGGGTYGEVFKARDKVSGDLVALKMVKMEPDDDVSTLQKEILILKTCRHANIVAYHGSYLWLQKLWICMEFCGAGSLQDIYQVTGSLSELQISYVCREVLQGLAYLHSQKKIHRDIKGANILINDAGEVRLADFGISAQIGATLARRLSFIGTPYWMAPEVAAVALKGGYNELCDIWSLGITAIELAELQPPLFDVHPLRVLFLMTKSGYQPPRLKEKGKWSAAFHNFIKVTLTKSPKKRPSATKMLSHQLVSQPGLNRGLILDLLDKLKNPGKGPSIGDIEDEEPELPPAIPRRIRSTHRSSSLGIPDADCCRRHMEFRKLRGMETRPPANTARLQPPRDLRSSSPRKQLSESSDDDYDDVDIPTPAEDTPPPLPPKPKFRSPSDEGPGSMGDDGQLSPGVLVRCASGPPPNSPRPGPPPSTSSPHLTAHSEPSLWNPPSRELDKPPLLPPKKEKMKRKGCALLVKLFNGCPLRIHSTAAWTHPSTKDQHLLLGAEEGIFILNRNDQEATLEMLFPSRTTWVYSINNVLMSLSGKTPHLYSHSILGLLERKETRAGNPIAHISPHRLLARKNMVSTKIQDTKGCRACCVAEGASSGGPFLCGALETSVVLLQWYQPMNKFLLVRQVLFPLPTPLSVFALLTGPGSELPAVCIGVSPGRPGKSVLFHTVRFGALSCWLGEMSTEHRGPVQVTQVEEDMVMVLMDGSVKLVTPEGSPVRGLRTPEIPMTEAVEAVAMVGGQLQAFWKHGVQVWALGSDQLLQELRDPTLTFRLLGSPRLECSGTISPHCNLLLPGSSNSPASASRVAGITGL
# test_summary: HPK-1 biochemical enzyme assay (ADP-Glo kinase inhibition)
# assay_setup: recombinant full length HPK-1 6.8 nM, 10 μM ATP, 12.5 μM MBP, 30 mins at 25° C.

Problem: Request - read-out IC50 | tested on recombinant full length HPK-1 enzyme (Homo sapiens (Human)) | compound Cc1c(Nc2cc[nH]c(=O)c2C(=O)Nc2ccc(N3CCN(C)[C@@H](C)C3)cc2)cnc2c1NCCO2 [Example 219]
Result: ≤ 0.01 µM

Problem: Also need Cc1c(Nc2cc[nH]c(=O)c2C(=O)Nc2ccc(N3CCN(C(=O)C4CC4C)CC3)cc2)cnc2c1NCCO2 (centres unmarked) [Example 305] , thanks.
Result: ≤ 0.01 µM

Problem: Also need CCC(=O)N1CCN(c2ccc(NC(=O)c3c(Nc4cnc5c(c4C)NCC(C)O5)cc[nH]c3=O)cc2Cl)CC1 (centres unmarked) [Example 313] , thanks.
Result: 0.01 to 0.1 µM

Problem: Also need Cc1c(Nc2cc[nH]c(=O)c2C(=O)Nc2ccc(N3CCN(C)CC3)cc2)cnc2c1NCC(C(C)C)O2 (centres unmarked) [Example 189] , thanks.
Result: 0.01 to 0.1 µM

Problem: Also need CCC(=O)N1CCN(c2ccc(NC(=O)c3c(Nc4cnc5c(c4C)NCC(C)O5)cc[nH]c3=O)cc2)CC1 (centres unmarked) [Example 362] , thanks.
Result: 0.01 to 0.1 µM

Problem: Also need Cc1c(Nc2cc[nH]c(=O)c2C(=O)Nc2ccc(-c3ccncc3)cc2)cnc2c1NCCO2 [Example 152] , thanks.
Result: 0.01 to 0.1 µM

Problem: Also need Cc1c(Nc2cc[nH]c(=O)c2C(=O)Nc2ccc(N3CCN(C4CCCC4)CC3)cc2)cnc2c1NCC(C)O2 (centres unmarked) [Example 187] , thanks.
Result: ≤ 0.01 µM

Problem: Also need Cc1c(Nc2cc[nH]c(=O)c2C(=O)Nc2ccc(N3CCN(C4CCC4)CC3)cc2)cnc2c1NCCO2 [Example 179] , thanks.
Result: ≤ 0.01 µM
